Test system: KRAS G12C-dependent Ba/F3 cells
experimentalDetails: Ba/F3 proliferation assay, KRAS G12C
Format: cell-based
measurementContext: Mus musculus, BaF3, 72 h, AlamarBlue
Measured IC50 accompanies every entry in the list below.
Give the value in nM but do not write nM after it.

Below, 4 molecules whose answers are already recorded.
chemicalSmiles	experimentalValue
C[C@H](Oc1cc(-n2cc(C(=O)N(C)C)nn2)nc(-c2noc3c2CCC[C@@]32CCCc3sc(N)c(C#N)c32)n1)[C@@H]1CCCN1C	10
C[C@H](Oc1cc(-n2ccc(-c3cnccn3)n2)nc(-c2noc3c2CCC[C@@]32CCCc3sc(N)c(C#N)c32)n1)[C@@H]1CCCN1C	6
C[C@H](Oc1cc(-n2cncc3ccnc2-3)nc(-c2onc3c2CCC[C@@]32CCCc3sc(N)c(C#N)c32)n1)[C@@H]1CCCN1C	15
Cc1cn(C)nc1-c1cc(O[C@@H](C)[C@@H]2CCCN2C)nc(-c2noc3c2CCC[C@@]32CCCc3sc(N)c(C#N)c32)n1	56

GET /values?readout=IC50&item= C[C@H](Oc1cc(N2CCOC2=O)nc(-c2noc3c2CCC[C@@]32CCCc3sc(N)c(C#N)c32)n1)[C@@H]1CCCN1C
5

Further, for C[C@H](Oc1cc(N2C[C@H](C)N(C)[C@@H](C)C2)nc(-c2noc3c2CCC[C@@]32CCCc3sc(N)c(C#N)c32)n1)[C@@H]1CCCN1C ?
296

Further, for CO[C@@H]1C[C@@H]([C@H](C)Oc2cc(N3CCNC4(CC4)C3)nc(-c3noc4c3CCC[C@@]43CCCc4sc(N)c(C#N)c43)n2)N(C)C1 ?
133

---

Measured pIC50 accompanies every entry in the list below.
System: LOVO cells
experimentalDetails: LOVO CTG proliferation assay (120 h) (CRC, G13D)
Assay type: cell-based
measurementContext: Homo sapiens, CTG 120 h
// scale note: pIC50 = -log10(conc_M); give the bare number

GET /values?readout=pIC50&item= Cc1nccn1-c1cc(O[C@@H](C)[C@@H]2CCCN2C)nc(-c2noc3c2CCC[C@@]32CCCc3sc(N)c(C#N)c32)n1
6.97

Further, for C[C@H](Oc1cc(-n2cc(C(=O)N(C)C)nn2)nc(-c2noc3c2CCC[C@@]32CCCc3sc(N)c(C#N)c32)n1)[C@@H]1CCCN1C ?
6.92

Further, for C[C@H](Oc1cc(-c2ccn(C[C@H]3CCOC3)n2)nc(-c2noc3c2CCC[C@@]32CCCc3sc(N)c(C#N)c32)n1)[C@@H]1CCCN1C ?
7.16

Further, for C[C@H](Oc1cc(-n2cc3ccn([C@@H]4CCOC4)c(=O)c3n2)nc(-c2noc3c2CCC[C@@]32CCCc3sc(N)c(C#N)c32)n1)[C@@H]1CCCN1C ?
7.15

Further, for C[C@H](Oc1cc(-n2ccc(-c3cn(CC4(C)COC4)nn3)n2)nc(-c2noc3c2CCC[C@@]32CCCc3sc(N)c(C#N)c32)n1)[C@@H]1CCCN1C ?
6.93

Further, for CCOC(=O)c1ccn(-c2cc(O[C@@H](C)[C@@H]3CCCN3C)nc(-c3noc4c3CCC[C@@]43CCCc4sc(N)c(C#N)c43)n2)n1 ?
6.91

Further, for C[C@H](Oc1cc(N2CCC[C@@H](O)C2)nc(-c2noc3c2CCC[C@@]32CCCc3sc(N)c(C#N)c32)n1)[C@@H]1CCCN1C ?
7.14

---

Test system: AsPC-1 cells
experimentalDetails: AsPC-1 CTG proliferation assay (120 h) (pancreatic cancer, G12D)
Format: cell-based
measurementContext: Homo sapiens, ASPC1
Protocol: AsPC-1 CTG Proliferation Assay (120 h) (Pancreatic Cancer, G12D) The CTG assay is designed to measure quantitatively the proliferation of AsPC-1 cells (ATCC […]), using the CellTiter Glow Assay Kit (Promega G7571). […] Plates are incubated for 120 h, and cell viability is measured using CellTiter-Glo luminescent cell viability reagent (Promega product code G7570). […] IC50 values are determined from viability measurements by non-linear regression using a four-parameter model.
Measured IC50 accompanies every entry in the list below.
Give the value in nM but do not write nM after it.

chemicalSmiles	targetOrSystem	quantity	unitAbbrev	experimentalValue
C[C@H](Oc1cc([C@H]2CCN(C)C2)nc(-c2noc3c2CCC[C@@]32CCCc3sc(N)c(C#N)c32)n1)[C@@H]1CCCN1C	AsPC-1 cells	IC50	nM	213
C[C@H](Oc1cc(-n2ccc(C#N)n2)nc(-c2noc3c2CCC[C@@]32CCCc3sc(N)c(C#N)c32)n1)[C@@H]1CCCN1C	AsPC-1 cells	IC50	nM	2770
C[C@H](Oc1cc(N2CC(N(C)C)C2)nc(-c2noc3c2CCC[C@@]32CCCc3sc(N)c(C#N)c32)n1)[C@@H]1CCCN1C	AsPC-1 cells	IC50	nM	1640
CO[C@H]1CCN(C)[C@@H]1[C@H](C)Oc1cc(-n2ccc(CC(=O)NC(C)C)n2)nc(-c2onc3c2CCC[C@@]32CCCc3sc(N)c(C#N)c32)n1	AsPC-1 cells	IC50	nM	384

GET /values?readout=IC50&item= CO[C@@H]1C[C@@H]([C@H](C)Oc2cc(N3CCN(C)C4(CC4)C3)nc(-c3noc4c3CCC[C@@]43CCCc4sc(N)c(C#N)c43)n2)N(C)C1
526

Further, for C[C@H](O)Cn1ncc(-c2cc(O[C@@H](C)[C@@H]3CCCN3C)nc(-c3noc4c3CCC[C@@]43CCCc4sc(N)c(C#N)c43)n2)n1 ?
9670

---

targetOrSystem: KRAS (WT)::SOS1 (Homo sapiens (Human), UniProt P01116, C118S)
Sequence (P01116 other isoform, or with tags, fused parts or gaps C118S): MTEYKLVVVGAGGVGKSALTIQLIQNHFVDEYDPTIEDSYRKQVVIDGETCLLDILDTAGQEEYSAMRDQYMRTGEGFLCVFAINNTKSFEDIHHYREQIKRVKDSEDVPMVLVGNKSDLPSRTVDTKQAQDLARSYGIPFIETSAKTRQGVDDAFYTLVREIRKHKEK
experimentalDetails: KRAS::SOS1 AlphaScreen binding assay, KRAS WT
quantity: IC50 (nM)
Give the value in nM but do not write nM after it.

GET /values?readout=IC50&item= C[C@H](Oc1cc(N2CC[C@H](N(C)C)C2)nc(-c2noc3c2CCC[C@@]32CCCc3sc(N)c(C#N)c32)n1)[C@@H]1C[C@@H](F)CN1C
11

Further, for C[C@H](Oc1cc(-c2ccn(C3COC3)n2)nc(-c2onc3c2CCC[C@@]32CCCc3sc(N)c(C#N)c32)n1)[C@@H]1CCCN1C ?
4

Further, for C[C@H](Oc1cc(-n2ccc(-c3cnccn3)n2)nc(-c2noc3c2CCC[C@@]32CCCc3sc(N)c(C#N)c32)n1)[C@@H]1CCCN1C ?
5

---

targetOrSystem: KRAS (G12V)::SOS1 (Homo sapiens (Human), UniProt P01116, C118S/G12V)
Sequence (P01116 other isoform, or with tags, fused parts or gaps G12V/C118S): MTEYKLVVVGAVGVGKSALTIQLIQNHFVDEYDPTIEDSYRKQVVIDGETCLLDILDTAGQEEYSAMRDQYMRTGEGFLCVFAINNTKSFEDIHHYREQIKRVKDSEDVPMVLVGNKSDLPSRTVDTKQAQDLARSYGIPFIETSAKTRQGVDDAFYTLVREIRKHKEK
experimentalDetails: KRAS::SOS1 AlphaScreen binding assay, KRAS G12V
Method: This assay can be used to examine the potency with which compounds according to the invention binding to (mutated) KRAS inhibit the protein-protein interaction between SOS1 and (mutated) KRAS e.g., KRAS WT, KRAS G12C, KRAS G12D, KRAS G12V, KRAS G13D. […] Plates are kept at room temperature in a darkened incubator. After an additional 60 minutes incubation time the signal is measured in a PerkinElmer Envision HTS Multilabel Reader using the AlphaScreen specs from PerkinElmer. […]
quantity: IC50 (nM)
Give the value in nM but do not write nM after it.

chemicalSmiles	quantity	experimentalValue
C[C@H](Oc1cc(N2CCc3cccnc32)nc(-c2noc3c2CCC[C@@]32CCCc3sc(N)c(C#N)c32)n1)[C@@H]1CCCN1C	IC50	8
C[C@H](Oc1cc(N2CCN(C)C3(COC3)C2)nc(-c2noc3c2CCC[C@@]32CCCc3sc(N)c(C#N)c32)n1)[C@@H]1C[C@@H](F)CN1C	IC50	3
C[C@H](Oc1cc(-n2ccc(C(=O)NC3COC3)n2)nc(-c2noc3c2CCC[C@@]32CCCc3sc(N)c(C#N)c32)n1)[C@@H]1CCCN1C	IC50	7
C[C@H](Oc1cc(-n2ccnc2)nc(-c2noc3c2CCC[C@@]32CCCc3sc(N)c(C#N)c32)n1)[C@@H]1C[C@@H](F)CN1C	IC50	5
C[C@H](Oc1cc(N2CCN(C)C3(CC3)C2)nc(-c2noc3c2CCC[C@@]32CCCc3sc(N)c(C#N)c32)n1)[C@@H]1CCCN1C	IC50	50

GET /values?readout=IC50&item= C[C@H](Oc1cc(-n2ccc(C(N)=O)n2)nc(-c2noc3c2CCC[C@@]32CCCc3sc(N)c(C#N)c32)n1)[C@@H]1CCCN1C
1

Further, for C[C@H](Oc1cc(-n2ccc(C(=O)N[C@H]3CCOC3)n2)nc(-c2noc3c2CCC[C@@]32CCCc3sc(N)c(C#N)c32)n1)[C@@H]1CCCN1C ?
2

Further, for C[C@H](Oc1cc(N2CCNC3(COC3)C2)nc(-c2onc3c2CCC[C@@]32CCCc3sc(N)c(C#N)c32)n1)[C@@H]1CCCN1C ?
8
